Tested on: HIV-1 (IIIB)
Test: Antiviral assay in MT-4 cells (HIV MT-4 antiviral assay)
Assay type: cell-based
Conditions: HIV-1 (IIIB) in MT-4 cells, 5 days incubation
The molecules listed here are annotated with their EC50.
// note: answer is a bare numeric in nM

* O=C(NCc1ccc(F)cc1F)c1cn2c(c(O)c1=O)C(=O)N1CC2CCc2cc(F)c(F)cc21 (single isomer, unassigned) [Example 50-2] | 32.5
* O=C(NCc1ccc(F)cc1F)c1cn2c(c(O)c1=O)C(=O)N1CC2CCc2cc(F)ccc21 (single isomer, unassigned) [Example 55-2] | 1.8

Request - read-out EC50 | tested on HIV-1 (IIIB) | molecule O=C(NCc1ccc(F)cc1F)c1cn2c(c(O)c1=O)C(=O)N1CC2CCc2cc(F)c(F)cc21 (single isomer, unassigned) [Example 50-1]
1.39

###

The compounds listed here are annotated with their pEC50.
Test system: pLai RLuc reporter virus
Test: microbe, parasite or virus in culture
Assay type: cell-based, HIV
Conditions: Human immunodeficiency virus 1, 72 h, read-out: Antiviral Serum Shift RLuc CCM, CCM (RPMI media, 10% FBS, 1% P/S), 72-h incubation
pEC50 field: float, defined as -log10 of concentration (mol/L).

As a guide, the following entries are already answered.
• O=C(NCc1c(F)cc(F)cc1F)c1cn2c(c(O)c1=O)C(=O)N1CCC[C@@H](Cl)[C@H]2C1 (single isomer, unassigned) [Example 72-2] = 9.57
• O=C(NCc1c(F)cc(F)cc1F)c1cn2c(c(O)c1=O)C(=O)N1CCc3ccc(F)cc3[C@H]2C1 [Example 147] = 9.43
• O=C(NCc1ccc(F)c(Cl)c1F)c1cn2c(c(O)c1=O)C(=O)N1CCCC[C@@H]2C1 [Example 35] = 9.37
• C[C@H]1[C@H]2CCCCN1C(=O)c1c(O)c(=O)c(C(=O)NCc3ccc(F)cc3F)cn12 [Example 9] = 9.48
• C[C@H]1C=C[C@H](C)N2C[C@H]1n1cc(C(=O)NCc3c(F)cc(F)cc3F)c(=O)c(O)c1C2=O [Example 183] = 9.58

Please examine the following record next.
// pEC50 lookup, key: C[C@]12CCCCN(C1)C(=O)c1c(O)c(=O)c(C(=O)NCc3ccc(F)cc3F)cn12 [Example 173]
9.44

###

Assay: Cytotoxicity assay in MT-4 cells
Format: cell-based, human
Settings: human, uninfected MT-4 cells, 5 days incubation; read-out: CC50
measuredParameter: CC50 at 5 days (µM)
// note: answer is a bare numeric in µM

* O=C(NCc1ccc(F)cc1F)c1cn2c(c(O)c1=O)C(=O)N1CC=CC[C@H]2C1 [Example 47-2] | 8.72
* C[C@H]1[C@@H]2CCCCN1C(=O)c1c(O)c(=O)c(C(=O)NCc3c(F)cc(F)cc3F)cn12 [Example 8] | 20.8
* C[C@H]1CCC[C@@H]2CN1C(=O)c1c(O)c(=O)c(C(=O)NCc3ccc(F)cc3F)cn12 [Example 52-2] | 5.84

// CC50 at 5 days lookup, key: O=C(NCc1ccc(F)cc1F)c1cn2c(c(O)c1=O)C(=O)N1C[C@@H]2CC=C[C@@H]1CF [Example 188]
12.2

// CC50 at 5 days lookup, key: O=C(NCc1ccc(F)cc1F)c1cn2c(c(O)c1=O)C(=O)N1CCC=C[C@H]2C1 [Example 169]
11.8

// CC50 at 5 days lookup, key: C[C@@H]1C=C[C@H](C)N2C[C@H]1n1cc(C(=O)NCc3ccc(F)cc3F)c(=O)c(O)c1C2=O [Example 177]
8.54

// CC50 at 5 days lookup, key: O=C(NCc1c(F)cc(F)cc1F)c1cn2c(c(O)c1=O)C(=O)N1CC2CCc2ccccc21 (single isomer, unassigned) [Example 38-1]
11

// CC50 at 5 days lookup, key: O=C(NCc1c(F)cc(F)cc1F)c1cn2c(c(O)c1=O)C(=O)N1Cc3ccccc3C[C@H]2C1 [Example 70]
13.3

// CC50 at 5 days lookup, key: O=C(NCc1c(F)cc(F)cc1F)c1cn2c(c(O)c1=O)C(=O)N1CC(F)CC[C@H]2C1 (stereo partly shown) [Example 178]
16.7

###

System: pLai RLuc reporter virus
Assay: microbe, parasite or virus in culture
Type: cell-based, HIV
Details: Human immunodeficiency virus 1, 72 h, read-out: Antiviral Serum Shift RLuc CCM, CCM (RPMI media, 10% FBS, 1% P/S), 72-h incubation
measuredParameter: pEC50
pEC50 field: float, defined as -log10 of concentration (mol/L).

// pEC50 lookup, key: O=C(NCc1ccc(F)c(Cl)c1F)c1cn2c(c(O)c1=O)C(=O)N1CCC=C(F)[C@H]2C1 (single isomer, unassigned)
9.50

###

Tested on: pLai RLuc reporter virus
Assay: microbe, parasite or virus in culture
Format: cell-based, HIV
Conditions: Human immunodeficiency virus 1, 72 h, read-out: Antiviral Serum Shift RLuc CCM, CCM (RPMI media, 10% FBS, 1% P/S), 72-h incubation
The molecules listed here are annotated with their pEC50.
pEC50 field: float, defined as -log10 of concentration (mol/L).

As a guide, the following entries are already answered.
• O=C(NCc1c(F)cc(F)cc1F)c1cn2c(c(O)c1=O)C(=O)N1CCc3ccccc3[C@H]2C1 (single isomer, unassigned) = 9.34
• O=C(NCc1c(F)cc(F)cc1F)c1cn2c(c(O)c1=O)C(=O)N1CCC(F)=C[C@H]2C1 = 9.63
• C[C@@H]1C[C@H]2CN(C(=O)c3c(O)c(=O)c(C(=O)NCc4c(F)cc(F)cc4F)cn32)[C@@H](C)C1 = 9.45
• C[C@@H]1CCC[C@@H]2CN1C(=O)c1c(O)c(=O)c(C(=O)NCc3ccc(F)cc3F)cn12 = 9.23
• O=C1c2c(O)c(=O)c(-c3nnc(Cc4ccc(F)cc4F)s3)cn2[C@H]2CCCCN1C2 = 9.01

// pEC50 lookup, key: O=C(NCc1ccc(F)cc1F)c1cn2c(c(O)c1=O)C(=O)N1CC/C=C\C[C@@H]2C1
9.17

// pEC50 lookup, key: O=C(NCc1ccc(F)cc1F)c1cn2c(c(O)c1=O)C(=O)N1C[C@@H]2CCC[C@@H]1CF
9.45

###

Assay: Cytotoxicity assay in MT-4 cells
Assay type: cell-based, human
Settings: human, uninfected MT-4 cells, 5 days incubation; read-out: CC50
Protocol: Each plate contained up to 8 test compounds, with negative (No Drug Control) and 5 μM AZT positive controls. MT-4 cells were pre-infected with 10 μL of either RPMI (mock-infected) or a fresh 1:250 dilution of HIV-1 IIIB concentrated virus stock. […] After 5 days incubation in a humidified and temperature controlled incubator (37° C.), Cell Titer Glo (Promega) was added to the assay plates and chemiluminescence read using an Envision plate-reader. […]
measuredParameter: CC50 at 5 days (µM)
// note: answer is a bare numeric in µM

As a guide, the following entries are already answered.
* C[C@H]1C=C[C@H](C)N2C[C@H]1n1cc(C(=O)NCc3c(F)cc(F)cc3F)c(=O)c(O)c1C2=O [Example 183] | 10.5
* C[C@@H]1CCC[C@@H]2CN1C(=O)c1c(O)c(=O)c(C(=O)NCc3ccc(F)cc3F)cn12 [Example 52-3] | 15.5
* O=C(NCc1c(F)cc(F)cc1F)c1cn2c(c(O)c1=O)C(=O)N1CCC[C@@H](Cl)[C@H]2C1 (single isomer, unassigned) [Example 72-2] | 12.1
* CC[C@]1(O)CCCN2C[C@H]1n1cc(C(=O)NCc3ccc(F)cc3F)c(=O)c(O)c1C2=O [Example 77] | 15.1

Please examine the following record next.
// CC50 at 5 days lookup, key: CC12CCCCN(C1)C(=O)c1c(O)c(=O)c(C(=O)NCc3c(F)cc(F)cc3F)cn12 (stereo not drawn) [Example 18]
29.4

###

System: pLai RLuc reporter virus
Experiment: microbe, parasite or virus in culture
Format: cell-based, HIV
Settings: Human immunodeficiency virus 1, 72 h, read-out: Antiviral Serum Shift RLuc CCM, CCM (RPMI media, 10% FBS, 1% P/S), 72-h incubation
The molecules listed here are annotated with their EC50.
// note: answer is a bare numeric in nM

* C[C@H]1CC[C@H](F)[C@H]2CN1C(=O)c1c(O)c(=O)c(C(=O)NCc3c(F)cc(F)cc3F)cn12 | 1.61
* O=C(NCc1c(F)cc(F)cc1F)c1cn2c(c(O)c1=O)C(=O)N1Cc3cc(F)c(F)cc3C[C@H]2C1 | 0.269
* C[C@@H]1N2C[C@H](CCC1(C)F)n1cc(C(=O)NCc3c(F)cc(F)cc3F)c(=O)c(O)c1C2=O (stereo partly shown) | 0.285

// EC50 lookup, key: O=C(NCc1ccc(F)cc1F)c1cn2c(c(O)c1=O)C(=O)N1CCCC[C@]2(CF)C1
0.118

// EC50 lookup, key: CC(C)N1CCN2CC(C1)n1cc(C(=O)NCc3ccc(F)cc3F)c(=O)c(O)c1C2=O (stereo not shown)
2.06

// EC50 lookup, key: O=C(NCc1c(F)cc(F)cc1F)c1cn2c(c(O)c1=O)C(=O)N1CCC(F)(F)C[C@H]2C1
0.717

// EC50 lookup, key: O=C(NCc1c(F)cc(F)cc1F)c1cn2c(c(O)c1=O)C(=O)N1C[C@@H]2CCc2c(Cl)cccc21
0.359
